biological target: human GPR119 (hGPR119) (Homo sapiens, UniProt Q8TDV5); experiment: cAMP accumulation assay, CHO-K1 cells stably expressing human GPR119; settings: cAMP HTRF, 60 minutes
Sequence (Q8TDV5 whole entry): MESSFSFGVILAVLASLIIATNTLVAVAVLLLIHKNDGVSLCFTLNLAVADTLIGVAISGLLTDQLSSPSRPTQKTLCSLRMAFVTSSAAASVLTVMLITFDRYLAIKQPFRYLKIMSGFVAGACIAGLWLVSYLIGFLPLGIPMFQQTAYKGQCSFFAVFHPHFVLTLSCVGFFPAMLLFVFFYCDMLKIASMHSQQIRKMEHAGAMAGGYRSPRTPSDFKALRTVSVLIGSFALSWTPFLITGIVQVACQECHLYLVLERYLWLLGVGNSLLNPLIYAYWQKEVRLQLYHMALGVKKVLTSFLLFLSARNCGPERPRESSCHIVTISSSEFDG
pEC50: −log10 of the molar value.

>  <Molecule>
CCCc1cnc(N2CCC(CCCOc3cc(F)c(CC(=O)N4CC(C(=O)NCCC[N+](C)(C)C)C4)c(F)c3)CC2)nc1 [Compound A13]

>  <pEC50>
6.00 to 7.00

$$$$
>  <Molecule>
COCc1cnc(N2CCC(CCCOc3ccc(CC(=O)N4CC(CNCCNC(=O)NC(CO)(CO)CO)C4)c(F)c3)CC2)nc1 [Compound A51]

>  <pEC50>
6.00 to 7.00

$$$$
>  <Molecule>
O=C(NCCCCS(=O)(=O)O)C1CN(C(=O)Cc2ccc(OCCCC3CCN(c4ncc(Cl)cn4)CC3)cc2F)C1 [Compound A65]

>  <pEC50>
6.00 to 7.00

$$$$
>  <Molecule>
CCc1cnc(N2CCC(CCCOc3ccc(CC(=O)N4CC(CNC[C@H](O)[C@H](O)[C@@H](O)[C@H](O)C(=O)O)C4)c(F)c3)CC2)nc1 [Compound A36]

>  <pEC50>
≥ 7.00

$$$$
